assay_system: Probable nicotinate-nucleotide adenylyltransferase (Staphylococcus aureus (strain N315), UniProt P65502);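 note: confirmatory retest of primary uHTS inhibitor hits against NadD over a range of doses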
Sequence (P65502 whole entry): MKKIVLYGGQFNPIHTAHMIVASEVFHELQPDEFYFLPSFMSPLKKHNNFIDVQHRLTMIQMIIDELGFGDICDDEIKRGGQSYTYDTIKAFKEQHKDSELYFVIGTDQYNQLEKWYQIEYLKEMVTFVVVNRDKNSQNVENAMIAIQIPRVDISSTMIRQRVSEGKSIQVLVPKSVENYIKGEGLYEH
Type: functional, Staphylococcus aureus subsp. aureus N315
Calls of active or inactive are those of the source.
quantity_name: IC50

| chemical_string | result |
| --- | --- |
| CC(C)n1c(=S)[nH]c2scc(-c3cccs3)c2c1=O | 13.5 µM (active) |
| CCN(CC)C(=O)CSc1ncnc2c(-c3cccs3)nsc12 | 12.9 µM (active) |
| O=C(COC(=O)c1c2c(nc3ccccc13)/C(=C\c1ccco1)CC2)NC1CCCC1 | 8.49 µM (active) |

Please find the next molecule below.
What value of measured IC50 is listed for NC(=O)/C(=N\OC(=O)c1ccco1)c1nc(-c2ccc(Br)cc2)cs1 ? 7.32 µM (active)

----------
# EC50 values compiled below
assay_system: Short transient receptor potential channel 4 (Mus musculus, UniProt Q9QUQ5)
Sequence (Q9QUQ5 whole entry): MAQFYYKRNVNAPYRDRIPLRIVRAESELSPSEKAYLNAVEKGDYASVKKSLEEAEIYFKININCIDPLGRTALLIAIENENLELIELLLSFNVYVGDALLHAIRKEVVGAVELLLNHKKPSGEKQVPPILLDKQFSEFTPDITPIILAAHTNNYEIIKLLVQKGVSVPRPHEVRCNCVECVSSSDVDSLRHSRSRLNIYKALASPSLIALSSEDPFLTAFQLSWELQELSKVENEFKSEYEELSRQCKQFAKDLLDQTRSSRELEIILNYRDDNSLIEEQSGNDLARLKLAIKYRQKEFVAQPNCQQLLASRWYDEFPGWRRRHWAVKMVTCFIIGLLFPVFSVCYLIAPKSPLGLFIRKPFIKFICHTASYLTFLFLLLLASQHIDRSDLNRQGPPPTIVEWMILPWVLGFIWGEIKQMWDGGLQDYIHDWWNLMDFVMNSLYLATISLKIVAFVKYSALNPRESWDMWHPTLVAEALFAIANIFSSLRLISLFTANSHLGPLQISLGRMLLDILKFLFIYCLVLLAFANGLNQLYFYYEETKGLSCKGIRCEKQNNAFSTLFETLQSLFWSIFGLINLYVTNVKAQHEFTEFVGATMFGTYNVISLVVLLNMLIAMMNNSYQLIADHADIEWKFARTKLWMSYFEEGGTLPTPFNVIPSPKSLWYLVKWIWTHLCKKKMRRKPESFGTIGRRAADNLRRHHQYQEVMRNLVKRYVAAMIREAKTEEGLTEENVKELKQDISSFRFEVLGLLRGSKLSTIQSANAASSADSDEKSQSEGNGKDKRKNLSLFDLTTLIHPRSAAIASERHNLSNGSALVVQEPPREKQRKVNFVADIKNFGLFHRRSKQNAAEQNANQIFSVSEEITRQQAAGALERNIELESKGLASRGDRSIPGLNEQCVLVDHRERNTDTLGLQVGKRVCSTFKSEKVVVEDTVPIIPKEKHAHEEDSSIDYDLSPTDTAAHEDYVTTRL
procedure_summary: block of DAMGO-driven TRPC4 calcium entry – cell-based, HEK293 TRPC4/mu-opioid, Fluo-4 calcium, dose response (AID 434942);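 note: potency of inhibitors blocking the TRPC4 calcium response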
Type: functional
Calls of active or inactive are those of the source. How the calls were made is not given here.

| molecule | quantity_name | result |
| --- | --- | --- |
| Cc1cc(C)c2nc(O)c(CN(Cc3cccnc3)C(S)=NCCCN(C)C)cc2c1 | EC50 | 2370 nM (active) |
| Cc1nn(-c2nc3ccccc3n2Cc2ccccc2)c2c1C(=O)CC(C)(C)C2 | EC50 | 2110 nM (active) |
| CCOC(=O)C1(CCc2ccccc2)CCN(Cc2ccc(O)cc2)CC1 | EC50 | 2990 nM (active) |

What value of measured EC50 is listed for Clc1ccc2c(c1)-c1nnc(Br)n1-c1ccccc1S2 ? 5960 nM (active)

Same thing, different molecule: CN(C)/C=C1\C(=O)N(c2ccc([N+](=O)[O-])cc2)N=C1c1ccccc1 15000 nM (active)

Same thing, different molecule: C/C(=N/NC(=O)c1ccc(Cn2cccn2)o1)c1cccc(NC(=O)c2ccncc2)c1 3760 nM (active)

Same thing, different molecule: CC(=O)OCCCN1C(=O)c2cccc3cc(Br)cc(c23)C1=O 211 nM (active)

Same thing, different molecule: CCOC(=O)CSc1nc2c(sc(=S)n2-c2ccccc2OC)c(=O)n1-c1ccccc1OC 2370 nM (active)

Same thing, different molecule: CCOC(=O)C1(Cc2ccccc2)CCN(Cc2ccc(C)s2)CC1 133 nM (active)

----------
assay_system: Genome polyprotein (dengue virus type 2, UniProt P29990)
Sequence (P29990 2492-3391 limits assumed): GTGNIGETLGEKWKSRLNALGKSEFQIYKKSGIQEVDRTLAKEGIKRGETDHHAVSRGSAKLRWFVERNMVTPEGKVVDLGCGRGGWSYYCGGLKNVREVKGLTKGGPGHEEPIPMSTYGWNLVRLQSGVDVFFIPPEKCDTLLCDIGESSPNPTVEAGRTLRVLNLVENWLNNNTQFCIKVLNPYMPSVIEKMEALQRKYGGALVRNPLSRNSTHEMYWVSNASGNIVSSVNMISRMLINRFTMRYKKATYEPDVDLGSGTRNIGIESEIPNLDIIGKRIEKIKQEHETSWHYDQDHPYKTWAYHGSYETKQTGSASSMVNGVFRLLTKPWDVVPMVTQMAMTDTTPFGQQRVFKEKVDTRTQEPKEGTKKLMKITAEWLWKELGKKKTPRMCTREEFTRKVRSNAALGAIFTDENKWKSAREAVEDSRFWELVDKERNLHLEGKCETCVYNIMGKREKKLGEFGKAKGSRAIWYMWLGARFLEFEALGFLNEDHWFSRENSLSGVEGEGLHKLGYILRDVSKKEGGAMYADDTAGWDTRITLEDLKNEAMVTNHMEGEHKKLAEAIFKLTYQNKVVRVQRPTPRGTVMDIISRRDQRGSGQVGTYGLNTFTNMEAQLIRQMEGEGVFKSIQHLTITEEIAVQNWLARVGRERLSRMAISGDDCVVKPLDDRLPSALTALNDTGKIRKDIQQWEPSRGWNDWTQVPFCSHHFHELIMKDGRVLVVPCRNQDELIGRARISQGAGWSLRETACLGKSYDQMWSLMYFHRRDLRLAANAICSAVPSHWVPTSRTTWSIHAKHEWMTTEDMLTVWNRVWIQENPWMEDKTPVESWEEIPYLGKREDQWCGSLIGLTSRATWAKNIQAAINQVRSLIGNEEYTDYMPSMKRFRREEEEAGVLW
procedure_summary: flavivirus cap methylation enzyme inhibition – biochemical, confirmation dose response, primary screen (AID 588689)
Type: functional
Active and inactive are the calls of the source. How the calls were made is not given here.
quantity_name: IC50

| compound | IC50 |
| --- | --- |
| NC(=O)/C(=N\OC(=O)c1ccco1)c1nc(-c2ccc(Br)cc2)cs1 | 40.8 µM (active) |
| CC1(C)CC(=O)C(=Cc2cn(CCC#N)nc2-c2ccc(Cl)cc2)C(=O)C1 | 31.8 µM (active) |
| Cc1c(Br)c(O)c(Br)c2sc(=O)oc12 | 62.3 µM (active) |
| O=C(COc1cccnc1[N+](=O)[O-])c1ccc(Cl)s1 | > 100 µM (active) |
| O=C(O)CCCNC(=O)/C=C/c1ccco1 | > 100 µM (active) |

What value of measured IC50 is listed for COc1ccc(S(=O)(=O)CC(=O)c2cc3cc(Br)ccc3oc2=O)cc1 ? > 100 µM (active)

Same thing, different compound: CC(C(=O)Nc1ccc(C(=O)O)c(O)c1)N1C(=O)/C(=C\c2ccco2)SC1=S (stereo not given) 79.4 µM (active)

Same thing, different compound: O=C(/C(=N/N=C/c1ccc(O)c(O)c1O)c1ccccc1)c1ccccc1 50.1 µM (active)

Same thing, different compound: Cc1cc(=O)c2c(o1)C(=O)c1occc1C2=O 62.4 µM (active)

Same thing, different compound: CC(C)c1nnc(NC(=O)c2nc(S(=O)(=O)Cc3ccc(F)cc3)ncc2Cl)s1 96 µM (active)
